meta.source: patent US20210315933A1

- study system: T1, recombinant human IL13Rα2 fused to an Fc domain of human IgG1 (hIL13Rα2-Fc) (human, UniProt Q14627 27-343, limits assumed)
- T1 construct: Bought construct (R&D Systems); The Fc can be removed by Factor Xa, so a Factor Xa site lies between the parts; not shown: Fc domain of human IgG1
- T1 sequence (looked up): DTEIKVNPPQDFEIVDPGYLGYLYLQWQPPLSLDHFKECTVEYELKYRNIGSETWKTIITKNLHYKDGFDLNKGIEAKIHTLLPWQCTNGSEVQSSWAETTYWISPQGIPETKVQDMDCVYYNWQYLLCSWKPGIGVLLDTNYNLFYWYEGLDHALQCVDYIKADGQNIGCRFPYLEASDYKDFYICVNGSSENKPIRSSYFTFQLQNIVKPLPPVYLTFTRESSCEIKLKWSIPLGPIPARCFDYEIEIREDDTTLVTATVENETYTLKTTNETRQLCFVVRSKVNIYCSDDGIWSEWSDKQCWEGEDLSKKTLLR
- test description: Octet KD relative to clone 1 parental
// KD fold difference lookup, one value per entry
Response body: numeric value in fold, unit text excluded.

# binder, KD fold difference / fold
data = [
    ("anti-IL13Rα2 Clone 1 humanized variant 1-h9 (VHH) VHH: EVQLVESGGGLVQPGGSLRLSCAASGFTSDYYIMGWFRQAPGKGLEWVSCISSKYANTYYADSVKGRFTISRDNAKNTLYLQMNSLRPEDTAVYYCAADTRRYTCPDIATMHRNFDSWGQGTLVTVSS", 3),
    ("Humanized Llama Single domain anti-IL13Rα2 Clone 1-h8 (H1-LSD1) (VHH, Captured on a Ni-NTA sensor, so a His tag is implied; the tag is not described) VHH: EVQLVESGGGLVQPGGSLRLSCAASGFTSDYYIMGWFRQAPGKGLEGVSCISSKYANTYYADSVKGRFTISRDNAKNTLYLQMNSLRPEDTAVYYCAADTRRYTCPDIATMHRNFDSWGQGTLVTVSS", 3.1),
    ("Llama single domain anti-IL13Rα2 Clone 1 (LSD1) (VHH, Captured on a Ni-NTA sensor in the Octet assay, so a His tag is implied; the tag is not described for this construct; also called parental; clone 1 parental) VHH: DVQLVESGGGLVQPGGSLRLSCAASGFTSDYYIIGWFRQAPGKEREGVSCISSKYANTNYADSVKGRFTQSRGAAKNTVYLQMNALKPEDTAVYYCAADTRRYTCPDIATMHRNFDSWGQGTQVTVSS", 1),
]

Turning to the following binder.
In one line, give reported KD fold difference of the entry Humanized Llama single domain anti-IL13Rα2 Clone 1-h10 (H2-LSD1) (VHH, Captured on a Ni-NTA sensor, so a His tag is implied; the tag is not described) VHH: EVQLVESGGGLVQPGGSLRLSCAASGFTSDYYIMGWVRQAPGKGLEWVSCISSKYANTYYADSVKGRFTISRDNAKNTLYLQMNSLRPEDTAVYYCAADTRRYTCPDIATMHRNFDSWGQGTLVTVSS .
2.3
